target: Aβ42 (Homo sapiens); experiment: Th-T (thioflavin-T) assay of Aβ42 aggregation; format: biochemical; conditions: column suffix _50; reading M6
Please respond with reported Th-T assay signal, mean of three wells (Fig. 7a) for every item in the list.
Numbers only.

Examples with their reported Th-T assay signal, mean of three wells (Fig. 7a) follow.
Compound	Assayed system	Recorded result
C=C1CCC2C(C)(CCC=C(C)C)C(O)CCC2(C)C1Cc1c(OC)oc(CO)c(C(=O)OC)c1=O (centres unmarked)	Aβ42 (Homo sapiens)	0.2003
C=C1CC[C@@H]2[C@](C)(CC[C@H]3O[C@H](C=C(C)C)C[C@@]23C)[C@@H]1Cc1c(OC)oc(CO)c(C)c1=O	Aβ42 (Homo sapiens)	0.2431
C=C1CC[C@@H]2[C@](C)(CC[C@H]3O[C@H](C=C(C)C)C[C@@]23C)[C@@H]1Cc1c(OC)oc(CO)c(C(=O)OC)c1=O	Aβ42 (Homo sapiens)	0.209
C=C1CCC2C(C)(CCC=C(C)C)C(O)CCC2(C)C1Cc1c(OC)oc(C)c(C(=O)OC)c1=O (centres unmarked)	Aβ42 (Homo sapiens)	0.449

stdin: Return Th-T assay signal, mean of three wells (Fig. 7a) (reported value) for this compound: C=C1CCC2C(C)(CCC=C(C)C)C(O)CCC2(C)C1Cc1c(OC)oc(CO)c(C)c1=O (centres unmarked)
stdout: 2.555

====

Please respond with reported Th-T fluorescence, mean of three wells for every item in the list.
target: UniProt P05067; assay: Th-T (thioflavin-T) assay of Aβ42 aggregation; format: biochemical; conditions: reading M24; Supplementary Fig. 47 source data
One number for each entry.

Molecule	Th-T fluorescence, mean of three wells
C=C1CC[C@H]2[C@]3(C)C[C@H](C=C(C)C)O[C@H]3CC[C@]2(C)[C@@H]1Cc1c(OC)oc(C)c(C)c1=O	3.963
C=C1CCC2C(C)(CC(=O)C=C(C)C)C(O)CCC2(C)C1Cc1c(O)c(C)c(C)oc1=O (centres unmarked)	2.859
C=C1CC[C@H]2[C@]3(C)C[C@H](C=C(C)C)O[C@H]3CC[C@]2(C)[C@@H]1Cc1c(O)c(C)c(C)oc1=O	2.736

Need Th-T fluorescence, mean of three wells for each of these molecules.
1. C=C1CC[C@H]2[C@]3(C)C[C@@H](C=C(C)C)O[C@H]3CC[C@]2(C)[C@@H]1Cc1c(OC)oc(CO)c(C)c1=O
2. C=C1CCC2C(C)(CCC=C(C)C)C(=O)CCC2(C)C1Cc1c(O)c(C)c(C)oc1=O (centres unmarked)

stdout:
1. 2.808
2. 1.925

====

biological target: Aβ42 (Homo sapiens, UniProt P05067); assay: Th-T (thioflavin-T) assay of Aβ42 aggregation; assay type: biochemical; conditions: reading M112; compound at 20 (head suffix _20)
Sequence (P05067 672-713): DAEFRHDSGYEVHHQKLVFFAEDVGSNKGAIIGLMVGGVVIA
Test readout: Th-T fluorescence, mean of three wells (Fig. 7a)
Answers are plain numbers.

Examples with their reported Th-T fluorescence, mean of three wells (Fig. 7a) follow.
Molecule	Assayed system	Recorded result
C=C1CCC2C(C)(CCC=C(C)C)C(O)CCC2(C)C1Cc1c(OC)oc(C)c(C(=O)OC)c1=O (centres unmarked) [Compound 14]	Aβ42 (Homo sapiens, UniProt P05067)	1.668
C=C1CCC2C(C)(CCC=C(C)C)C(O)CCC2(C)C1Cc1c(OC)oc(CO)c(C(=O)OC)c1=O (centres unmarked) [Compound 13]	Aβ42 (Homo sapiens, UniProt P05067)	1.035
C=C1CC[C@@H]2[C@](C)(CC[C@H]3O[C@H](C=C(C)C)C[C@@]23C)[C@@H]1Cc1c(OC)oc(CO)c(C)c1=O [Compound 20]	Aβ42 (Homo sapiens, UniProt P05067)	3.191
C=C1CC[C@@H]2[C@](C)(CC[C@H]3O[C@H](C=C(C)C)C[C@@]23C)[C@@H]1Cc1c(OC)oc(CO)c(C(=O)OC)c1=O [Compound 21]	Aβ42 (Homo sapiens, UniProt P05067)	0.9334

Field: next molecule
stdin: Return Th-T fluorescence, mean of three wells (Fig. 7a) (reported value) for this molecule: C=C1CCC2C(C)(CCC=C(C)C)C(O)CCC2(C)C1Cc1c(OC)oc(CO)c(C)c1=O (centres unmarked) [Compound 12]
stdout: 2.104

====

target: Aβ42 (Homo sapiens, UniProt P05067); assay: Th-T (thioflavin-T) assay of Aβ42 aggregation; assay type: biochemical; conditions: measurement M10; source data, Ab alone and No Ab as controls
// returns -1 unless Th-T assay plate reading, mean of three wells (Supplementary Fig. 47) is strictly below 0.7, in which case 1

stdin: Answer whether the compound C=C1CCC2C(C)(CCC=C(C)C)C(O)CCC2(C)C1Cc1c(OC)oc(C)c(C)c1=O (stereo not drawn) [Compound 11] has Th-T assay plate reading, mean of three wells (Supplementary Fig. 47) strictly less than 0.7
stdout: 1

====

biological target: Aβ42 (Homo sapiens, UniProt P05067); assay: Th-T (thioflavin-T) assay of Aβ42 aggregation; type: biochemical; conditions: time-course reading M101; Supplementary Fig. 47 source data
Test readout: Th-T fluorescence, mean of three wells
One number for each entry.

Compound	Th-T fluorescence, mean of three wells
C=C1CCC2C(C)(CCC=C(C)C)C(=O)CCC2(C)C1Cc1c(O)c(C)c(C)oc1=O (stereo not shown)	2.216
C=C1CCC2C(C)(CC(=O)C=C(C)C)C(O)CCC2(C)C1Cc1c(OC)oc(C)c(C)c1=O (stereo not shown)	3.662
C=C1CC[C@@H]2[C@](C)(CC[C@H]3O[C@H](C=C(C)C)C[C@@]23C)[C@@H]1Cc1c(O)c(C)c(C)oc1=O	3.025

Field: next compound
stdin: Return Th-T fluorescence, mean of three wells (reported value) for this compound: C=C1CCC2C(C)(CC(=O)C=C(C)C)C(O)CCC2(C)C1Cc1c(OC)oc(CO)c(C)c1=O (stereo not shown)
stdout: 3.5892

====

Please respond with reported viability at 0.2 µM for every item in the list.
assay: cytotoxicity in Drosophila l(2)mbn cells; format: cell-based; settings: Drosophila, l(2)mbn cells (larval blood cell-derived), 0.2 µM, replicate 1, relative to DMSO 1%, read-out: % viability, viability 1
One number for each entry, in %.

Examples with their reported viability at 0.2 µM follow.
Compound	Unit abbrev	Recorded result
C=C1CCC2C(C)(CCC=C(C)C)C(=O)CCC2(C)C1Cc1c(O)c(C)c(C)oc1=O (stereo not shown) [Compound 8]	%	87.7
C=C1CC[C@@H]2[C@](C)(CC[C@H]3O[C@H](C=C(C)C)C[C@@]23C)[C@@H]1Cc1c(OC)oc(CO)c(C)c1=O [Compound 20]	%	106
C=C1CC[C@@H]2[C@](C)(CC[C@H]3O[C@H](C=C(C)C)C[C@@]23C)[C@@H]1Cc1c(O)c(C)c(C)oc1=O [Compound 10, higginsianin A]	%	108
C=C1CCC2C(C)(CCC=C(C)C)C(O)CCC2(C)C1Cc1c(OC)oc(C)c(C(=O)OC)c1=O (stereo not shown) [Compound 14]	%	136
C=C1CCC2C(C)(CC(=O)C=C(C)C)C(O)CCC2(C)C1Cc1c(OC)oc(C)c(C)c1=O (stereo not shown) [Compound 25]	%	130
C=C1CCC2C(C)(CC(=O)C=C(C)C)C(O)CCC2(C)C1Cc1c(O)c(C)c(C)oc1=O (stereo not shown) [Compound 7]	%	129

stdin: Return viability at 0.2 µM (reported value) for this compound: C=C1CCC2C(C)(CCC=C(C)C)C(O)CCC2(C)C1Cc1c(OC)oc(CO)c(C(=O)OC)c1=O (stereo not shown) [Compound 13]
stdout: 160

====

molecular target: Aβ42 (Homo sapiens, UniProt P05067); experiment: Th-T (thioflavin-T) assay of Aβ42 aggregation; format: biochemical; conditions: compound at 50; reading M41 of time course
Would you please tag the item fulfilled when its Th-T fluorescence, mean of three wells is 2 or above, and not fulfilled when it is below?

Compound	Qualitative label
C=C1CCC2C(C)(CCC=C(C)C)C(O)CCC2(C)C1Cc1c(OC)oc(C)c(C(=O)OC)c1=O (centres unmarked)	fulfilled
C=C1CCC2C(C)(CCC=C(C)C)C(O)CCC2(C)C1Cc1c(OC)oc(CO)c(C)c1=O (centres unmarked)	not fulfilled
C=C1CC[C@@H]2[C@](C)(CC[C@H]3O[C@H](C=C(C)C)C[C@@]23C)[C@@H]1Cc1c(OC)oc(CO)c(C(=O)OC)c1=O	not fulfilled
C=C1CC[C@@H]2[C@](C)(CC[C@H]3O[C@H](C=C(C)C)C[C@@]23C)[C@@H]1Cc1c(OC)oc(CO)c(C)c1=O	fulfilled

Let's switch to this compound now.
stdin: Entry C=C1CCC2C(C)(CCC=C(C)C)C(O)CCC2(C)C1Cc1c(OC)oc(CO)c(C(=O)OC)c1=O (centres unmarked) : is its Th-T fluorescence, mean of three wells no less than 2?
stdout: not fulfilled
